Recorded pIC50 values for a group of compounds are listed next.
System: MCF7
Test: Antiproliferative activity against human MCF7 cells assessed as cell growth inhibition incubated for 48 hrs by MTT assay
Format: functional, cell-based
Details: MCF7, 48 h
pIC50: −log10 of the molar value.

>  <COMPOUND>
O=c1[nH]cc(F)c(=O)[nH]1

>  <pIC50>
4.82

$$$$
>  <COMPOUND>
Cc1sc([Se]c2sc(C)c(-c3ccccc3)c2C(=O)NC(C)C(=O)N2CCCC2)c(C(=O)NC(C)C(=O)N2CCCC2)c1-c1ccccc1 (stereo not drawn)

>  <pIC50>
4.82

$$$$
>  <COMPOUND>
Cc1sc([Se]c2sc(C)c(-c3cccc(Br)c3)c2C(=O)NC(CO)C(=O)N2CCCC2)c(C(=O)NC(CO)C(=O)N2CCCC2)c1-c1cccc(Br)c1 (stereo not drawn)

>  <pIC50>
5.09

$$$$
